Measured values drawn from paper PMC9332833 for this set.

- procedure.summary: Pharmacokinetics in Balb/c nude mice
- Assay type: in vivo
- protocol.conditions: Balb/c nude; IP 40 mg/kg, whole blood, female mouse; extrapolated to t = 0
quantity.measured: C0 (ng/mL)

* CCC12C(=O)C(CC)(C(c3ccccc3)=C1c1ccccc1)C1C(=O)N(CC(O)CNC(C)C)C(=O)C12 (stereo not shown) | 2760

###

- procedure.summary: Pharmacokinetics in Balb/c nude mice
- Type: in vivo
- protocol.conditions: Balb/c nude; IP 40 mg/kg, whole blood, female mouse; extrapolated to infinity
quantity.measured: AUC(0-inf) (ng·h/mL)

• CCC12C(=O)C(CC)(C(c3ccccc3)=C1c1ccccc1)C1C(=O)N(CC(O)CNC(C)C)C(=O)C12 (stereo not shown) = 23500
